Values were extracted from patent US10800772B2.

- ASSAY: Hum MS stability (human microsomal stability half-life)
- EXPERIMENTAL CONDITIONS: human microsomes
Quick reference for half-life among some molecules
Express it in h; write the number only.

Completed entries (count: 10):
>  <MOLECULE>
Cc1cc2nc(-c3ccc4c(c3)c(C3CCN(C5COC5)CC3)nn4C)sc2c(-c2ccc(Cl)cc2)c1[C@H](OC(C)(C)C)C(=O)O

>  <READING UNIT>
h

>  <half-life>
5.83

$$$$
>  <MOLECULE>
Cc1cc2nc(-c3ccc4c(c3)c(N3CC[C@@H](N(C)C)C3)nn4C)sc2c(-c2ccc(Cl)cc2)c1[C@H](OC(C)(C)C)C(=O)O

>  <READING UNIT>
h

>  <half-life>
6.05

$$$$
>  <MOLECULE>
Cc1cc2nc(-c3ccc4c(c3)c(C3CCN([C@H]5CCN(C)C5)CC3)nn4C)sc2c(-c2ccc(Cl)cc2)c1[C@H](OC(C)(C)C)C(=O)O

>  <READING UNIT>
h

>  <half-life>
2.12

$$$$
>  <MOLECULE>
COCCOC(=O)N1CCC(c2nn(C)c3ccc(-c4nc5cc(C)c([C@H](OC(C)(C)C)C(=O)O)c(-c6ccc(Cl)cc6)c5s4)cc23)C1 (stereo partly drawn)

>  <READING UNIT>
h

>  <half-life>
3.05

$$$$
>  <MOLECULE>
Cc1cc2nc(-c3ccc4c(c3)c(N3CCN(C)C3=O)nn4C)sc2c(-c2ccc(Cl)cc2)c1[C@H](OC(C)(C)C)C(=O)O

>  <READING UNIT>
h

>  <half-life>
5.42

$$$$
>  <MOLECULE>
COCCN1CCN(c2nn(C)c3ccc(-c4nc5cc(C)c([C@H](OC(C)(C)C)C(=O)O)c(-c6ccc(Cl)cc6)c5s4)cc23)CC1

>  <READING UNIT>
h

>  <half-life>
3.17

$$$$
>  <MOLECULE>
Cc1cc2nc(-c3ccc4c(n3)c(N3CCN(C5COC5)CC3)nn4C)sc2c(-c2ccc(Cl)cc2)c1[C@H](OC(C)(C)C)C(=O)O

>  <READING UNIT>
h

>  <half-life>
2.83

$$$$
>  <MOLECULE>
CCN1CCN(c2nn(C)c3ccc(-c4nc5cc(C)c([C@H](OC(C)(C)C)C(=O)O)c(-c6ccc(Cl)cc6)c5s4)cc23)CC1

>  <READING UNIT>
h

>  <half-life>
5.82

$$$$
>  <MOLECULE>
Cc1cc2nc(-c3ccc4c(n3)c(C3CCN([C@H]5CCN(C)C5)CC3)nn4C)sc2c(-c2ccc(Cl)cc2)c1[C@H](OC(C)(C)C)C(=O)O

>  <READING UNIT>
h

>  <half-life>
0.933

$$$$
>  <MOLECULE>
Cc1cc2nc(-c3ccc4c(c3)c(C3CCN(C5CCOC5)CC3)nn4C)sc2c(-c2ccc(Cl)cc2)c1[C@H](OC(C)(C)C)C(=O)O (stereo in doubt) [Compound 27]

>  <READING UNIT>
h

>  <half-life>
4.17

$$$$

Query: In one line, give reported half-life of the entry "Cc1cc2nc(-c3ccc4c(c3)c(N3CCN(C)CC3)nn4C)sc2c(-c2ccc(Cl)cc2)c1[C@H](OC1CC1)C(=O)O" .
Response: 2.47

Query: In one line, give reported half-life of the entry "COCCOC1CN(c2nn(C)c3ccc(-c4nc5cc(C)c([C@H](OC(C)(C)C)C(=O)O)c(-c6ccc(Cl)cc6)c5s4)cc23)C1" .
Response: 1.48

###

- System: HIV-IIIb (wildtype)
- ASSAY: Antiviral assay in MT4 cells, HIV-IIIb wildtype
- Format: cell-based, HIV-1
- EXPERIMENTAL CONDITIONS: Human immunodeficiency virus 1, IIIB, MT4, 120 h, read-out: WT EC50
Quick reference for EC50 among some compounds
Respond with the figure and its unit, in that order.

Completed entries (count: 6):
>  <COMPOUND>
Cc1cc2nc(-c3ccc4c(c3)c(C3=CCOCC3)nn4C)sc2c(-c2ccc(Cl)cc2)c1[C@H](OC(C)(C)C)C(=O)O

>  <EC50>
14 nM

$$$$
>  <COMPOUND>
CCn1nc(C2CCN(C3COC3)CC2)c2cc(-c3nc4cc(C)c([C@H](OC(C)(C)C)C(=O)O)c(-c5ccc(Cl)cc5)c4s3)ccc21

>  <EC50>
4 nM

$$$$
>  <COMPOUND>
Cc1cc2nc(-c3ccc4c(c3)c(C3CCN(C5(C)COC5)CC3)nn4C)sc2c(-c2ccc(Cl)cc2)c1[C@H](OC(C)(C)C)C(=O)O

>  <EC50>
7 nM

$$$$
>  <COMPOUND>
COCCOC(=O)N1CCC(c2nn(C)c3ccc(-c4nc5cc(C)c([C@H](OC(C)(C)C)C(=O)O)c(-c6ccc(Cl)cc6)c5s4)cc23)C1 (stereo partly drawn)

>  <EC50>
6 nM

$$$$
>  <COMPOUND>
Cc1cc2nc(-c3ccc4c(c3)c(N3CC(N5CCOCC5)C3)nn4C)sc2c(-c2ccc(Cl)cc2)c1[C@H](OC(C)(C)C)C(=O)O

>  <EC50>
10 nM

$$$$
>  <COMPOUND>
Cc1cc2nc(-c3ccc4c(c3)c(C3CCN(C)C3)nn4C)sc2c(-c2ccc(Cl)cc2)c1[C@H](OC(C)(C)C)C(=O)O (stereo partly drawn)

>  <EC50>
10 nM

$$$$

Query: In one line, give reported EC50 of the entry "Cc1cc2nc(-c3ccc4c(n3)c(C3CCN([C@H]5C[C@@H](O)C5)CC3)nn4C)sc2c(-c2ccc(Cl)cc2)c1[C@H](OC(C)(C)C)C(=O)O" .
Response: 11 nM

Query: In one line, give reported EC50 of the entry "CC(=O)N1CC(N2CCC(c3cn(C)c4ncc(-c5nc6cc(C)c([C@H](OC(C)(C)C)C(=O)O)c(-c7ccc(Cl)cc7)c6s5)cc34)CC2)C1" .
Response: 15 nM

###

- Tested on: HIV-IIIb IN T174I DE
- ASSAY: Antiviral assay in MT4 cells, HIV-IIIb IN T174I DE virus (from dose escalation passaging)
- Format: cell-based, HIV-1
- EXPERIMENTAL CONDITIONS: Human immunodeficiency virus 1, IIIB, MT4, 120 h, read-out: T174I DE EC50, MT4 cells, HIV-IIIb IN T174I DE (dose escalation), 5 days, CellTiter-Glo
Quick reference for pEC50 among some molecules
pEC50 is a log-scale quantity: -log10 of the concentration expressed in molar.

>  <MOLECULE>
Cc1cc2nc(-c3cnc4c(n3)c(C3CCN(C5COC5)CC3)cn4C)sc2c(-c2ccc(Cl)cc2)c1[C@H](OC(C)(C)C)C(=O)O [Compound 16]

>  <pEC50>
6.22

$$$$
>  <MOLECULE>
COC(=O)N1CC(N2CCC(c3c4nc(-c5nc6cc(C)c([C@H](OC(C)(C)C)C(=O)O)c(-c7ccc(Cl)cc7)c6s5)ccc4nn3C(F)F)CC2)C1 [Compound 190]

>  <pEC50>
5.56

$$$$
>  <MOLECULE>
Cc1cc2nc(-c3ccc4c(c3)c(C3CCN(CC5CCO5)CC3)nn4C)sc2c(-c2ccc(Cl)cc2)c1[C@H](OC(C)(C)C)C(=O)O (stereo partly drawn) [Compound 6]

>  <pEC50>
6.24

$$$$

Query: In one line, give reported pEC50 of the entry Cc1cc2nc(-c3ccc4c(c3)c(N3CCN5CCOC[C@@H]5C3)nn4C)sc2c(-c2ccc(Cl)cc2)c1[C@H](OC(C)(C)C)C(=O)O [Compound 4] .
Response: 5.76

Query: In one line, give reported pEC50 of the entry Cc1cc2nc(-c3ccc4c(c3)c(N3CC[C@H](N(C)C)C3)nn4C)sc2c(-c2ccc(Cl)cc2)c1[C@H](OC(C)(C)C)C(=O)O [Compound 93] .
Response: 5.46

Query: In one line, give reported pEC50 of the entry CCN1CCC(c2nn(C)c3ccc(-c4nc5cc(C)c([C@H](OC(C)(C)C)C(=O)O)c(-c6ccc(Cl)cc6)c5s4)cc23)C1 (stereo partly drawn) [Compound 64] .
Response: 5.58

###

- Tested on: HIV-IIIb IN T174I DE
- ASSAY: Antiviral assay in MT4 cells, HIV-IIIb IN T174I DE virus (from dose escalation passaging)
- Assay type: cell-based, HIV-1
- EXPERIMENTAL CONDITIONS: Human immunodeficiency virus 1, IIIB, MT4, 120 h, read-out: T174I DE EC50, MT4 cells, HIV-IIIb IN T174I DE (dose escalation), 5 days, CellTiter-Glo
MEASURE NAME: EC50 (nM)
Express it in nM; write the number only.

>  <MOLECULE>
Cc1cc2nc(-c3ccc4c(c3)c(N3CCN([C@H]5C[C@@H](O)C5)CC3)nn4C)sc2c(-c2ccc(Cl)cc2)c1[C@H](OC(C)(C)C)C(=O)O

>  <ASSAY SYSTEM>
HIV-IIIb IN T174I DE

>  <READING UNIT>
nM

>  <RESULT VALUE>
539

$$$$
>  <MOLECULE>
Cc1cc2nc(-c3ccc4c(c3)c(N3CC(N5CCOCC5)C3)nn4C)sc2c(-c2ccc(Cl)cc2)c1[C@H](OC(C)(C)C)C(=O)O

>  <ASSAY SYSTEM>
HIV-IIIb IN T174I DE

>  <READING UNIT>
nM

>  <RESULT VALUE>
1700

$$$$
>  <MOLECULE>
Cc1cc2nc(-c3ccc4c(n3)c(C3CCN(C5COC5)CC3)nn4C)sc2c(-c2ccc(Cl)cc2)c1[C@H](OC(C)(C)C)C(=O)O

>  <ASSAY SYSTEM>
HIV-IIIb IN T174I DE

>  <READING UNIT>
nM

>  <RESULT VALUE>
252

$$$$
>  <MOLECULE>
COC(=O)N1CC(N2CCC(c3nn(C4CC4)c4ccc(-c5nc6cc(C)c([C@H](OC(C)(C)C)C(=O)O)c(-c7ccc(Cl)cc7)c6s5)cc34)CC2)C1

>  <ASSAY SYSTEM>
HIV-IIIb IN T174I DE

>  <READING UNIT>
nM

>  <RESULT VALUE>
716

$$$$
>  <MOLECULE>
COC(=O)N1CCC(c2nn(C)c3ccc(-c4nc5cc(C)c([C@H](OC(C)(C)C)C(=O)O)c(-c6ccc(Cl)cc6)c5s4)cc23)C1 (stereo partly drawn)

>  <ASSAY SYSTEM>
HIV-IIIb IN T174I DE

>  <READING UNIT>
nM

>  <RESULT VALUE>
1030

$$$$

Query: In one line, give reported EC50 of the entry "Cc1cc2nc(-c3ccc4c(n3)c(C3CCN([C@H]5C[C@H](O)C5)CC3)nn4C)sc2c(-c2ccc(Cl)cc2)c1[C@H](OC(C)(C)C)C(=O)O" .
Response: 784
